# Test system: colon HCT-116
# EXPERIMENTAL_PROTOCOL: COMPARE screening (NCI human cancer cell line screen), cytotoxicity GI50
# Type: cell-based
READOUT_TYPE: GI50

// below: answered molecules
MOLECULE: CC(C)(C)OC(=O)NCCCCCCCCCCCCn1c2c(c3ccccc3c1=O)C(=O)c1ccccc1-2
GI50: > 100 µM
--
MOLECULE: COc1cc2c3c(n(CCCNc4nccs4)c(=O)c2cc1OC)-c1cc2c(cc1C3=O)OCO2.Cl.Cl [Compound 5o, Dihydrochloride]
GI50: < 0.01 µM
--
MOLECULE: COc1cc2c3c(n(CCCN(CCCN(CCCn4c5c(c6ccccc6c4=O)C(=O)c4ccccc4-5)C(=O)OC(C)(C)C)C(=O)OC(C)(C)C)c(=O)c2cc1OC)-c1cc2c(cc1C3=O)OCO2 [Compound 16a]
GI50: > 100 µM
--
MOLECULE: O=C1c2ccccc2-c2c1c1ccccc1c(=O)n2CCNCCn1c2c(c3ccccc3c1=O)C(=O)c1ccccc1-2 [Compound 12a]
GI50: > 25.1 µM

Here is the next item to consider.
Quick check: GI50 of COc1ccc2c(c1)C(=O)c1c-2n(CCCN(C)C)c(=O)c2cc([N+](=O)[O-])ccc12 ?
< 0.01 µM

====

# Test system: prostate DU-145
# EXPERIMENTAL_PROTOCOL: COMPARE screening (NCI human cancer cell line screen), cytotoxicity GI50
# Assay type: cell-based
# PARTICULARS: Homo sapiens, DU-145, read-out: cytotoxicity (GI50) prostate DU-145
READOUT_TYPE: GI50 (µM)
# output: bare number, implied unit µM

// below: answered compounds
COMPOUND: Cl.NCCCCCCCCCCCn1c2c(c3ccccc3c1=O)C(=O)c1ccccc1-2 [Compound 5au, Hydrochloride]
TESTED_TARGET: prostate DU-145
MEASUREMENT_UNIT: µM
VAL: 4.57

COMPOUND: Cl.NCCCCCCCn1c2c(c3ccccc3c1=O)C(=O)c1ccccc1-2 [Compound 5aq, Hydrochloride]
TESTED_TARGET: prostate DU-145
MEASUREMENT_UNIT: µM
VAL: 0.832

COMPOUND: Cl.NCCCCCCCCn1c2c(c3ccccc3c1=O)C(=O)c1ccccc1-2 [Compound 5ar, Hydrochloride]
TESTED_TARGET: prostate DU-145
MEASUREMENT_UNIT: µM
VAL: 3.39

Here is the next item to consider.
Quick check: GI50 of Cl.NCCCCCCCCCCn1c2c(c3ccccc3c1=O)C(=O)c1ccccc1-2 [Compound 5at, Hydrochloride] ?
3.47

====

# System: CNS SF-539
# EXPERIMENTAL_PROTOCOL: COMPARE screening (NCI human cancer cell line screen), cytotoxicity GI50
# Format: cell-based
# PARTICULARS: CNS SF-539; concentration corresponding to 50% growth inhibition; read-out: cytotoxicity (GI50 in μM) CNS SF-539
// values below are reported GI50

// below: answered compounds
COMPOUND: CC(C)(C)OC(=O)N(CCCn1c2c(c3ccccc3c1=O)C(=O)c1ccccc1-2)CCN(CCCn1c2c(c3ccccc3c1=O)C(=O)c1ccccc1-2)C(=O)OC(C)(C)C [Compound 13b]
READOUT_TYPE: GI50
VAL: > 50.1 µM
//
COMPOUND: CC(C)(C)OC(=O)N(CCCN(CCn1c2c(c3ccccc3c1=O)C(=O)c1ccccc1-2)C(=O)OC(C)(C)C)CCn1c2c(c3ccccc3c1=O)C(=O)c1ccccc1-2 [Compound 13a]
READOUT_TYPE: GI50
VAL: > 50.1 µM

Quick check: GI50 of COc1cc2c3c(n(CCCNCCCNCCCn4c5c(c6ccccc6c4=O)C(=O)c4ccccc4-5)c(=O)c2cc1OC)-c1cc2c(cc1C3=O)OCO2.O=C(O)C(F)(F)F.O=C(O)C(F)(F)F [Compound 17a] ?
< 0.01 µM

====

# Tested on: prostate DU-145
# EXPERIMENTAL_PROTOCOL: COMPARE screening (NCI human cancer cell line screen), cytotoxicity GI50
# Type: cell-based
# PARTICULARS: Homo sapiens, DU-145, read-out: cytotoxicity (GI50) prostate DU-145
READOUT_TYPE: GI50

// below: answered compounds
COMPOUND: O=C1c2ccccc2-c2c1c1ccc([N+](=O)[O-])cc1c(=O)n2CCCBr
GI50: > 100 µM
//
COMPOUND: O=C1c2ccccc2-c2oc(=O)c3cc([N+](=O)[O-])ccc3c21
GI50: > 100 µM
//
COMPOUND: COc1cc2c3c(oc(=O)c2cc1OC)-c1ccccc1C3=O
GI50: ≥ 100 µM

Here is the next item to consider.
Quick check: GI50 of O=C1c2ccccc2-c2oc(=O)c3ccccc3c21 [Compound 4d, Benz[d]indeno[1,2-b]pyran-5,11-dione] ?
> 100 µM

====

# Tested on: melanoma UACC-62
# EXPERIMENTAL_PROTOCOL: COMPARE screening (NCI human cancer cell line screen), cytotoxicity GI50
# Format: cell-based
// values below are reported GI50

COMPOUND: COc1cc2c3c(n(CCCn4ccnc4)c(=O)c2cc1OC)-c1ccccc1C3=O [Compound 5e]
TESTED_TARGET: melanoma UACC-62
GI50: < 0.01 µM
//
COMPOUND: O=C(O)C(F)(F)F.O=C(O)C(F)(F)F.O=C1c2ccccc2-c2c1c1ccccc1c(=O)n2CCCN1CCN(CCCn2c3c(c4ccccc4c2=O)C(=O)c2ccccc2-3)CC1 [Compound 14f]
TESTED_TARGET: melanoma UACC-62
GI50: > 100 µM
//
COMPOUND: COc1ccc2c(c1)C(=O)c1c-2n(CCCN2CCOCC2)c(=O)c2cc([N+](=O)[O-])ccc12 [Compound 5bj]
TESTED_TARGET: melanoma UACC-62
GI50: < 0.01 µM

Here is the next item to consider.
Quick check: GI50 of COc1ccc2c(c1)C(=O)c1c-2n(CCCCl)c(=O)c2cc([N+](=O)[O-])ccc12 [Compound 5ba] ?
< 0.01 µM

====

# System: renal SN12C
# EXPERIMENTAL_PROTOCOL: COMPARE screening (NCI human cancer cell line screen), cytotoxicity GI50
# Type: cell-based
READOUT_TYPE: GI50 (nM)
# output: bare number, implied unit nM

COMPOUND: COc1cc2c(=O)n(CCCN3CCOCC3)c3c(c2cc1O)C(=O)c1cc2c(cc1-3)OCO2
MEASUREMENT_UNIT: nM
GI50: 200
--
COMPOUND: [N-]=[N+]=NCCCn1c2c(c3ccccc3c1=O)C(=O)c1ccccc1-2
MEASUREMENT_UNIT: nM
GI50: 25100
--
COMPOUND: COc1cc2c3c(n(CCCN4CCCNCC4)c(=O)c2cc1OC)-c1cc2c(cc1C3=O)OCO2.Cl.Cl [Compound 5v, Dihydrochloride]
MEASUREMENT_UNIT: nM
GI50: 145

Quick check: GI50 of O=C1c2ccccc2-c2c1c1ccccc1c(=O)n2CCCNCCCn1c2c(c3ccccc3c1=O)C(=O)c1ccccc1-2 [Compound 12c] ?
1550

====

# Test system: colon HCT-116
# EXPERIMENTAL_PROTOCOL: COMPARE screening (NCI human cancer cell line screen), cytotoxicity GI50
# Assay type: cell-based
# PARTICULARS: Homo sapiens, HCT-116, read-out: cytotoxicity (GI50) colon HCT-116
READOUT_TYPE: GI50

// below: answered molecules
MOLECULE: O=C1c2ccccc2-c2oc(=O)c3ccccc3c21 [Compound 4d, Benz[d]indeno[1,2-b]pyran-5,11-dione]
GI50: > 100 µM
//
MOLECULE: O=C1c2ccccc2-c2c1c1ccc([N+](=O)[O-])cc1c(=O)n2CCN1CCOCC1 [Compound 5i]
GI50: > 100 µM

Here is the next item to consider.
Quick check: GI50 of COc1cc2c3c(oc(=O)c2cc1OC)-c1ccccc1C3=O [Compound 4a] ?
≥ 100 µM

====

# Test system: lung HOP-62
# EXPERIMENTAL_PROTOCOL: COMPARE screening (NCI human cancer cell line screen), cytotoxicity GI50
# Format: cell-based
// values below are reported GI50

COMPOUND: COc1cc2c3c(n(CCCNc4nccs4)c(=O)c2cc1OC)-c1cc2c(cc1C3=O)OCO2.Cl.Cl [Compound 5o, Dihydrochloride]
GI50: < 10 nM
--
COMPOUND: COc1ccc2c(c1)C(=O)c1c-2n(CCCN(C)C)c(=O)c2cc([N+](=O)[O-])ccc12
GI50: < 10 nM

Here is the next item to consider.
Quick check: GI50 of O=C1c2ccccc2-c2c1c1ccccc1c(=O)n2CCNCCn1c2c(c3ccccc3c1=O)C(=O)c1ccccc1-2 [Compound 12a] ?
> 25100 nM
